Source of measurements: patent US20220096454A1

- System name: TNKS2 (Homo sapiens)
- Construct: GST-tagged Tnks-2 (873-1166 aa, prepared in-house); made in house
- Sequence (Q9H2K2 873-1166): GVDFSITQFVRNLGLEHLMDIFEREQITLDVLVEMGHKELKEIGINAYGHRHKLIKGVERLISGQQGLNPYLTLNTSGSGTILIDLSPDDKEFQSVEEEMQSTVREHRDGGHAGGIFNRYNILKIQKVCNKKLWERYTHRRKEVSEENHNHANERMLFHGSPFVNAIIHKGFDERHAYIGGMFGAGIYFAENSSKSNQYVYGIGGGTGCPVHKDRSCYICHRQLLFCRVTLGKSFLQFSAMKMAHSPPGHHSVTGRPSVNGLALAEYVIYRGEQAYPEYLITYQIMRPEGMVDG
- Test method notes: TNKS2 activity ELISA (autoparsylation assay)
- Format: biochemical
- Recorded conditions: GST-tagged Tnks-2 (873-1166 aa), 10 μM bio-NAD, 1 hour at 30° C.
Threshold check on IC50: strictly below 3 nM is fulfilled; on or above 3 nM is not fulfilled.

Here are 5 compounds together with their reported answers.
>>> label_class("CN(C(=O)N1CCC(C(=O)c2ccc3cnn(C)c3c2)CC1)c1ccc(C(=O)O)cc1")
"fulfilled"
>>> label_class("CN(C(=O)N1CCC(C(=O)c2ccc3ncn(C)c3c2)CC1)c1ccc(C(=O)O)cc1")
"fulfilled"
>>> label_class("CCN(C(=O)N1CCC(C(=O)c2ccc3cnn(C)c3c2)CC1)c1cccc(C(=O)O)c1")
"fulfilled"
>>> label_class("CCN(C(=O)N1CCC(C(=O)c2ccc3c(c2)c(C(=O)O)nn3C)CC1)c1ccc(OC)cc1")
"not fulfilled"
>>> label_class("CN(C(=O)N1CCC(C(=O)c2ccc3c(cnn3C)c2)CC1)c1cccc(C(=O)O)c1")
"fulfilled"

*Q* Threshold test, IC50 < 3 nM: CN(C(=O)N1CCC(C(=O)c2ccc3cnn(C)c3c2)CC1)c1ccc(C(=O)O)nc1
*A* not fulfilled

*Q* Threshold test, IC50 < 3 nM: COc1ccc(N(C)C(=O)N2CCC(C(=O)c3ccc4c(c3)cc(C(=O)O)n4C)CC2)cc1
*A* fulfilled
